biological target: P-selectin on activated platelets (Homo sapiens, UniProt P16109 P16109:42-830); experiment: flow; biotinylated, SA-PE; divalent cation dependent; blocked by G1 antibody; conditions: hairpin
Sequence (P16109 42-830, one chain of several): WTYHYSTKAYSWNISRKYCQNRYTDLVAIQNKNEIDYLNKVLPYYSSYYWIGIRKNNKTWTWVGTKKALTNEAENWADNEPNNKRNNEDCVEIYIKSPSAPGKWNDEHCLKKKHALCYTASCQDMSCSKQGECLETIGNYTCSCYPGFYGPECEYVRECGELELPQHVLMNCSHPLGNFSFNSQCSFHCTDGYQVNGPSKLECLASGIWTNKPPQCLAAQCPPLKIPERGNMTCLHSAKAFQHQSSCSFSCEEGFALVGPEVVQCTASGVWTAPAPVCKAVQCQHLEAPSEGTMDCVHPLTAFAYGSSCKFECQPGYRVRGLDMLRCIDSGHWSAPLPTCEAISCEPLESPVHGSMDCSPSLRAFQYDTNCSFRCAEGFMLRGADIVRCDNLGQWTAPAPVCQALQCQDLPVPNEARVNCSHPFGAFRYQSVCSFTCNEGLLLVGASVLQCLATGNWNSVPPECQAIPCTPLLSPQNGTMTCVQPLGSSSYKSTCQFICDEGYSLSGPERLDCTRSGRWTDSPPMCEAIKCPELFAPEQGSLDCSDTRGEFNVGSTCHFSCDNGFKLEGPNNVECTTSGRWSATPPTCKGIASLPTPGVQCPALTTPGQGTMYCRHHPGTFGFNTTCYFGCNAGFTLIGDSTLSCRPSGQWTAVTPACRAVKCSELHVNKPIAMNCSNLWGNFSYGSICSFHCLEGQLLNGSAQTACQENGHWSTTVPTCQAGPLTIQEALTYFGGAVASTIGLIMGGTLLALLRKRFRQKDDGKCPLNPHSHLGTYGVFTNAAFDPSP
Measurement Type: EC50

For the binder CUCAACGAGCCAGGAACAUCGACGUCAGCAAACGCGAG (ssRNA, 2'-F on all C and U) [PF377s1] , what EC50 is on record? ~0.05 nM
